Ref: the Immune Epitope Database (IEDB)

# ASSAY_TARGET: HLA-B*57:01
# METHOD_NOTES: IEDB peptide-MHC binding, purified MHC/competitive/fluorescence; filed as Kd, often an IC50 or EC50 that approximates it; bounds were set here for any values at or beyond the usual limits of such assays
# TEST_SETTINGS: source organism: Neembucu hantavirus
pKd: −log10 of the molar value.
QUANTITY_NAME: pKd

SEQUENCE_TEXT	READOUT_VALUE
ILYMLSWGK	≤ 4.70

* * *

# ASSAY_TARGET: HLA-A*24:03
# METHOD_NOTES: IEDB peptide-MHC binding, purified MHC/direct/fluorescence; filed as Kd, often an IC50 or EC50 that approximates it; bounds were set here for any values at or beyond the usual limits of such assays
# TEST_SETTINGS: source organism: Mammarenavirus paranaense

SEQUENCE_TEXT	Kd
PYENLLYKL	785 nM
